METHOD SUMMARY: chemical genetic growth profiling, strain panel (AID 1159580);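 also: tested at 20 µM; growth read once vehicle control cultures reached saturation at 30 °C; lower values mean less growth of the strain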
STUDY CONDITIONS: S. cerevisiae deletion strains, growth OD, locus YGR229C, strain SMI1
In all, about 5,500 compounds went through this assay and about 2,000 (36%) were called active. Inconclusive results (about 18%) are left out. Rule as the data show it: active = normalized growth mostly below about 0.91 (no sharp cut-off); inconclusive = no clear call, values can overlap the other calls; inactive = mostly above about 0.92. The list shows a part of the results.
Just give me one of these, please: active, inactive

COMPOUND | DISCRETE LABEL
CN1CCC(=C2c3ccccc3C=Cc3ccccc32)CC1 | inactive
CC(=O)[C@H]1CC[C@H]2[C@@H]3CCC4=CC(=O)CC[C@]4(C)[C@H]3CC[C@]12C | active

What call does the record list for OC1(c2ccc(Cl)cc2)CCN(Cc2c[nH]c3ccccc23)CC1 ?
inactive

// outcome(item) with item = O=c1onc2cnc3ccccc3n12
inactive
